biological target: T1, Recombinant human CD137/His (human, UniProt Q07011 24-186); assay: SPR (Biacore), antibody captured on anti-human Fc, human CD137/His as analyte, 1:1 fit
T1 construct: Analyte of the SPR assay; also called 4-1BB; TNFRSF9; not shown: His tag
measured_attribute: Ka (M⁻¹)
Give bare numbers, in M⁻¹.

Solved entries (count: 2):
anti-CD137 antibody MC8 (antibody, V domains shown, Variant of D6 with the same light chain variable domain) VH: QMQLVQSGAEVKKPGASVKVSCKASGYMPDGYYMHWVRQAPGQGLEWMGWINPRTGGTNYAQKFQGRVTITRDTSASTAYMELSSLRSEDTAVYYCAREGAAFRLELDAWGQGTLVTVSS VL: SYELTQPPSVSVAPGKTARITCGGNNIGSKSVHWYQQKPGQAPVLVIYYDSDRPSGIPERFSGSNSGNTATLTISRVEAGDEADYYCQVWDSSSVVFGGGTQLTVL : 3.32e+07
anti-CD137 antibody MB12 (antibody, V domains shown, Variant of D6 with the same light chain variable domain) VH: QMQLVQSGAEVKKPGASVKVSCKASGYSLEGYYMHWVRQAPGQGLEWMGWINPNSGGTNYAQKFQGRVTITRDTSASTAYMELSSLRSEDTAVYYCAREGEAVGLDLDYWGQGTLVTVSS VL: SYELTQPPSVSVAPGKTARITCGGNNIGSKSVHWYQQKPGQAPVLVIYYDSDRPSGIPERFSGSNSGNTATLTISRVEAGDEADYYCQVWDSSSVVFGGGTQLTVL : 6.47e+06

Continue with the next binder.
**Q:** # get_value(readout='Ka', item= anti-CD137 antibody MD4 (antibody, V domains shown, Variant of D6 with the same light chain variable domain) VH: QMQLVQSGAEVKKPGASVKVSCKASGYNWTGYYMHWVRQAPGQGLEWMGWINPMAGGTNYAQKFQGRVTITRDTSASTAYMELSSLRSEDTAVYYCAREGWARGVELDMWGQGTLVTVSS VL: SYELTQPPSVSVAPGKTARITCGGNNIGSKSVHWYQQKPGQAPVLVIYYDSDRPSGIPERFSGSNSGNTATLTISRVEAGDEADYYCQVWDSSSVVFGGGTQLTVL )
**A:** 1.12e+07
